# Protocol Notes: self-splicing fitness, log relative to wild type (ln ratio); higher = more splicing; Tetrahymena group I intron in knt gene, E. coli kanamycin selection, DiMSum; sequences stand for … in CUCUCU…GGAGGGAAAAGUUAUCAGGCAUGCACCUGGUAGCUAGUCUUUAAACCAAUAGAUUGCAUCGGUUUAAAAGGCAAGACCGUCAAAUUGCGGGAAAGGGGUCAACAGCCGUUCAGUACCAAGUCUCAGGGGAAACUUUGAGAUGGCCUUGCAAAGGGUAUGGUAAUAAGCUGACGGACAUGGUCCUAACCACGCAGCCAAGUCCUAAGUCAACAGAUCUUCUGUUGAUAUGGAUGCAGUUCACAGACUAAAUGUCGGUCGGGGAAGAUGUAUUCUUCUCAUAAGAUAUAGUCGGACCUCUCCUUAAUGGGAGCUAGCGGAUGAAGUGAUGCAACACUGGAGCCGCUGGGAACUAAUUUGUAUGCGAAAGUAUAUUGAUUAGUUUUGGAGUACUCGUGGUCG;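 further: selection with 25 µg/mL kanamycin versus none on LB agar overnight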
# Experimental Conditions: 30 °C
Would you kindly list self-splicing fitness (ln) for each of these sequences?
Just the number, please.

For `AUAUAGCAAUAUUACGUCAG` , write its self-splicing fitness (ln).
-3.76

Identify measured self-splicing fitness (ln) corresponding to `GUGCAGCAAUAUUACGCCAG`
-2.82

Please look at this sequence and report its self-splicing fitness (ln): `CUGGAGCAAUAUUACGUGAA`
-3.42

Identify measured self-splicing fitness (ln) corresponding to `CUUCAGCAAUAUUACGGACA`
-3.26

Complete the entry with self-splicing fitness (ln) for `GGUUAGCAAUAUUACGGAGG`
-3.02

For `CCGUAGCAAUAUUACGCGUG` , write its self-splicing fitness (ln).
-2.72

Indicate the recorded self-splicing fitness (ln) value for this sequence: `CUUCAGCAAUAUUACGGGGU`
-3.95

Return the recorded self-splicing fitness (ln) value; entry: `AGGGAGCAAUAUUACGUACU`
-1.74

Write down self-splicing fitness (ln) measured for item `CUUCAGCAAUAUUACGAUGG`
-2.3

Specify reported self-splicing fitness (ln) for the sequence shown: `CGGUAGCAAUAUUACGCGGG`
-2.49

Find the measured self-splicing fitness (ln) of `UAGUAGCAAUAUUACGGGAG` and report it.
-3.69

Read off the recorded self-splicing fitness (ln) for `ACUUAGCAAUAUUACGAGUG`
-1.17

Supply measured self-splicing fitness (ln) of `CGGUAGCAAUAUUACGGUCA` in your reply.
-0.916

Provide one value: measured self-splicing fitness (ln) of `ACAGAGCAAUAUUACGAUAU`
-3.55

Return self-splicing fitness (ln) for the following sequence: `AAGCAGCAAUAUUACGCUCC`
-1.82

Supply reported self-splicing fitness (ln) belonging to this sequence: `GGUGAGCAAUAUUACGUUUC`
-3.36
